src = the array DNA melting data of Ke et al. (doi:10.1101/2024.01.08.574731)

- protocol_description: melting temperature; fluorescence melt of hairpins on a sequencing array, two-state fit, raised by 9.35 °C to match UV melts
- measurement_context: sodium 0.088 M
sequences and their reported Tm
measure: Tm (°C)

- GGCTCAGCGAAAGCTGCC (((..(((....)))))): 44.2
- GTGCCCGAAAGGGCGCAC ((((((....)))..))): 64.8
- GATCTGAGGCAGATC ((((((...)))))): 47.5
- GCGTACTCACGC ((((....)))): 52.3
- GGAAAAGGAAACTTTTCC (((((((....))))))): 52.7
- GGAACCGAAAGGTATTCC ((((((....)))..))): 33.8
- GCTGGGCGAAAGCGCCGC ((.(.((....)).).)): 47.4
- GCCTTGAAAAAGGC (((((....))))): 58.1
- CGTCACGGAAACGTCACG (((.(((....))).))): 39.3
- GGCCCTTCGAAAGAAGCC (((..(((....)))))): 27.3
- GTAGTGCGAAAGCAATAC (((.(((....))).))): 53.9
- GCCCAAGGAAACCTAGGC (((.(.(....).).))): 32.8
- GCGGTTGGAAACAGCCGC ((((.((....)).)))): 64.6
- GCTATCGGAAACGACAGC (((.(((....))).))): 43.8
- GACGGCGAAAGCCAGGTC ((((((....)))..))): 46.6
- GAGTGAGGAAACTTACTC ((((.((....)).)))): 38.1
- GAGCGAGGAAACTCGTTC ((.((((....)))).)): 48.8
- GCTCATGGAAACGTGAGC (((((.(....).))))): 53.4
- GAACGAGGAAACTCGCTC ((.((((....)))).)): 38.9
- GTGAAGGAAACTTCAC ((((((....)))))): 54.1
- GCTCAGCGAAAGCCTAGC (((..((....))..))): 36.1
- GATCCCTTAGGGATC ((((((...)))))): 66.1
- GTAGGCGGAAACGCTTAC (((.(((....))).))): 48.2
- GAATCCCGAAAGGGTTC (((.(((....)))))): 48.1
- CGGTTCGGAAACGACCCG (((.(((....))).))): 50
- GAAATCACGAAAGTGTTC (((..(((....)))))): 20.8
- GATCGGCGTTCCGATC ((((((....)))))): 56.3
- GTGAGCGGAAACGTTCGC (.((.((....)).)).): 43.9
- GGGCATGGAAACATGCTC (.(((((....))))).): 55.4
- CGGGGACGGAAACGTCCG (((..(((....)))))): 50.2
- GATGTGGGAAACCACGTC ((.((((....)))).)): 51
- GATCCTGTGAGGATC ((((((...)))))): 53.3
- GAGACCGGAAACGATCTC ((((.((....)).)))): 42
- GCGTGCGAAAGCACTCGC ((((((....)))..))): 51.5
- GCTACCGGAAACGACAGC (((..((....))..))): 27.5
- GCTAAGCGAAAGCTCGGC ((..(((....)))..)): 39.7
- GCTAACGAAAGTTCTAGC ((((((....)))..))): 28.8
- GGACAGGGAAACCTATCC (((.(((....))).))): 32.6
- GCACCTGGAAACAAGTGC ((((.((....)).)))): 41.1
- GATCGAATCGTCGATC ((((((....)))))): 51.4
- GTTTCCGAAAGGAGAAC ((((((....))).))): 34.7
- GGGTGCGAAAGCAAACCC ((((((....)))..))): 55.9
- GGGAACGAAAGTTGCCCC ((((((....)))..))): 68.7
- GAAGCCGAAAGGCCTTTC ((((((....)))..))): 35.9
- GCTTCTCGAAAGAGAGC (((.(((....)))))): 49.4
- GCGGGTCCGAAAGGACGC (((..(((....)))))): 52.5
- CGTGCGGAAACGCAGACG ((((((....)))..))): 47.4
- GATCCAATTCTGGATC ((((((....)))))): 49.5
- GCAGGGCGAAAGCGCAGC ((.(.((....)).).)): 54.8
- GCGTCTTTACGC ((((....)))): 53.2

###

- protocol_description: folding enthalpy; higher = less favourable; fluorescence melt of hairpins on a sequencing array, two-state fit
- measurement_context: sodium 0.088 M
Where folding enthalpy equals or exceeds -20 kcal/mol, the correct label is 1.0; where it does not, the label is 0.0.

* GATCGAATTTCGATC ((((((...)))))) | 0.0
* GTGAAAGGAAACTTTTAC ((.((((....)))).)) | 0.0
* GCTGTGCGAAAGCAATGC ((..(((....)))..)) | 1.0
* GTAGGCGAAAGCCTCTAC ((((((....)))..))) | 1.0
* GCAGCGCGAAAGCCCAGC ((.(.((....)).).)) | 1.0
* GATCCTGGCAGGATC ((((((...)))))) | 0.0

###

- protocol_description: folding enthalpy; higher = less favourable; fluorescence melt of hairpins on a sequencing array, two-state fit
- measurement_context: sodium 0.088 M
Where folding enthalpy equals or exceeds -30 kcal/mol, the correct label is satisfied; where it does not, the label is not satisfied.

- GGCGAACCGAAAGGTGCC (((..(((....)))))): satisfied
- CGTACGGAAACGTCACG ((((((....))).))): satisfied
- GATCCTTAAAAGGATC ((((((....)))))): not satisfied
- GTGGCCGAAAGGCAACAC ((((((....)))..))): satisfied
- GATCCACGATTGGATC ((((((....)))))): not satisfied
- GCATAGTCGAAAGACTGC (((..(((....)))))): satisfied
- GACGGCCGAAAGGCGGTC (((.(((....))).))): satisfied
- GATATAACGAAAGTTATC (((..(((....)))))): satisfied
- GCTCCGACGAAAGTCAGC (((..(((....)))))): satisfied
- GCATGCGGAAACGTATGC ((((.((....)).)))): not satisfied
- GAATACGGAAACGTACTC ((.((((....)))).)): satisfied
- GGATCCGAAAGGATGTCC ((((((....)))..))): satisfied
- GTGGACGAAAGTCCGCAC ((((((....)))..))): satisfied
- GATCATCTTAATGATC ((((((....)))))): not satisfied
- GCGTTTGGAAACGAATGC ((.((.(....).)).)): satisfied
- GATCGGGCATCCGATC ((((((....)))))): not satisfied
- CGAGTCCGGAAACGGTCG (((..(((....)))))): satisfied
- GTGTCCGAAAGGACCCAC ((((((....)))..))): satisfied
- GCCTACGGAAACGCAGGC ((((.((....)).)))): satisfied
- GGTCTCGGAAACGAGATC (.(((((....))))).): not satisfied
- GGCCTAGGAAACTGGGTC (.((.((....)).)).): satisfied
- GTTGGAGGAAACCCCAAC (((((.(....).))))): not satisfied
- GCCTTCGAAAGAACAGGC ((((((....)))..))): satisfied
- GATCGCATATGCGATC ((((((....)))))): not satisfied

###

- protocol_description: folding enthalpy; higher = less favourable; fluorescence melt of hairpins on a sequencing array, two-state fit
- measurement_context: sodium 0.088 M
Where folding enthalpy equals or exceeds -30 kcal/mol, the correct label is YES; where it does not, the label is NO.

• GAGGACGAAAGTCGCCTC ((((((....)))..))) = YES
• GCTCCGCGAAAGCTCAGC (((..((....))..))) = YES
• GCGGAGCGAAAGCTGGGC ((..(((....)))..)) = YES
• GGCATCGAAAGATCTGCC ((((((....)))..))) = YES
• GCATCGCGAAAGCAAGGC ((.(.((....)).).)) = YES
• GATCAGGCTTCTGATC ((((((....)))))) = NO
• GCAGTTGAAAAACTGC ((((((....)))))) = NO
• GTTTTCGAAAGAATAAC ((((((....))).))) = YES
• CGCGGAATGATCCGCG ((((((....)))))) = NO
• GCTTTAGAAATAAAGC ((((((....)))))) = NO
• GGTGGCGAAAGCCTAACC ((((((....)))..))) = YES
• GATCAGCTTCCTGATC ((((((....)))))) = NO
